Target: PI3Kα (Homo sapiens, UniProt P42336)
Construct: His tag (pFastbac HTb vector) (N); FLAG; made in house; host or cells: Sf21 insect cells (baculovirus)
Sequence (P42336 whole entry): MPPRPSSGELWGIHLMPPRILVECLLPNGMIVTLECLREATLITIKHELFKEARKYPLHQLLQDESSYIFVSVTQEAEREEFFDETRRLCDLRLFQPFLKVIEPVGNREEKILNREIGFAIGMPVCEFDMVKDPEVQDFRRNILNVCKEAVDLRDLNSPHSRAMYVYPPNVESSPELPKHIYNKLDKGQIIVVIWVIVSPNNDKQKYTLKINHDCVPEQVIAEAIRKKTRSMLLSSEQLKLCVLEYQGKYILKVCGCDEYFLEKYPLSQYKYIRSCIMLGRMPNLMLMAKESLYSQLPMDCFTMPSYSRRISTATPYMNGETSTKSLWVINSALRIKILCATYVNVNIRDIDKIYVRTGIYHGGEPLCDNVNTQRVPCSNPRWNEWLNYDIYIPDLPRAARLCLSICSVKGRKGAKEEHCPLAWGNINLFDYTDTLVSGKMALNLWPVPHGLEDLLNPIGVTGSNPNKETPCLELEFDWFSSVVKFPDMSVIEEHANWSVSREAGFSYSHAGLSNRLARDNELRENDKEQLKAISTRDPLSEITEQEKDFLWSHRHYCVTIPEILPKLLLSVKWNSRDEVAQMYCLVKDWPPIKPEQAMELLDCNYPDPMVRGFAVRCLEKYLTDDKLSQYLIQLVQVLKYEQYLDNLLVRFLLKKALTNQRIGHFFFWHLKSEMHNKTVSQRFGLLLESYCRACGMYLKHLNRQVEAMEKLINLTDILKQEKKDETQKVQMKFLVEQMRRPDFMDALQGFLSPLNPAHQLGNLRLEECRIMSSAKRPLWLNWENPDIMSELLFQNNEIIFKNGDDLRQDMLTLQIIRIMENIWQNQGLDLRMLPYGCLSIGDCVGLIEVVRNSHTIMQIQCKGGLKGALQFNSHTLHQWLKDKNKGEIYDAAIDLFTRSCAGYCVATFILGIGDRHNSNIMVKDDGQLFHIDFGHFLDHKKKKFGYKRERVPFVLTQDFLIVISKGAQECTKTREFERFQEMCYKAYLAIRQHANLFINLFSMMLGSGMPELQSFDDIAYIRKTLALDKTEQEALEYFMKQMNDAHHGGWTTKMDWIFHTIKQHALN
Sequence (P27986 whole entry partner): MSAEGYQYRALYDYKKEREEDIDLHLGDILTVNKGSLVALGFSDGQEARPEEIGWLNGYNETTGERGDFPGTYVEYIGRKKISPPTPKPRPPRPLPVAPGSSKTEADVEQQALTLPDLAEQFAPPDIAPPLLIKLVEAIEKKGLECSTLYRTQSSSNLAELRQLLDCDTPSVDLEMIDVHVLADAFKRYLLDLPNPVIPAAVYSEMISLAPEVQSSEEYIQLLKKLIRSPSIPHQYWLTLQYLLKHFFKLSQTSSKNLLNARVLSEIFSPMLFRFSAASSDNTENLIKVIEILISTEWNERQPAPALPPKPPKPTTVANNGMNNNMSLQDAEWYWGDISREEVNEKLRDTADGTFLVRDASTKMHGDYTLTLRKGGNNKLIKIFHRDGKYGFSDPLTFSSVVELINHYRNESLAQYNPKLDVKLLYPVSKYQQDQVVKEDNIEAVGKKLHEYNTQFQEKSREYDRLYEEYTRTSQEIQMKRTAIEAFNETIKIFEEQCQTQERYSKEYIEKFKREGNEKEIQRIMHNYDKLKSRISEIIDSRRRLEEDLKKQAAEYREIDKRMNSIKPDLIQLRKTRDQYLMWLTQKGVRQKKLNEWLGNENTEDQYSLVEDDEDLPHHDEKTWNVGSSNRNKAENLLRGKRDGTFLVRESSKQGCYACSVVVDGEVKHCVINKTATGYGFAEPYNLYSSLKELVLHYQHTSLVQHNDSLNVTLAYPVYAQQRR
Experiment: Biochemical assay using 200 μM ATP, Alpha
Recorded measurements of Alpha/Delta Ratio, one per entry
Answer with a number only.

Observe how each entry below is paired with its result.
> print(dat)
                                   compound  reported.result
1  Cc1cccc2nc(CSc3ncnc4[nH]cnc34)n(-c3c(Cl)cccc3Cl)c(=O)c12              153
2  COc1ccccc1-n1c(CSc2ncnc3[nH]cnc23)nc2ccccc2c1=O               48
3  CC(=O)O.O=c1c2ccccc2nc(CSc2ncnc3[nH]cnc23)n1N1CCOCC1               65
4  Nc1ncnc2c1ncn2Cc1nc2cccc(Cl)c2c(=O)n1-c1ccccc1F              107
5  Cc1cccc2nc(CSc3ncnc4[nH]cnc34)n(-c3ccccc3C(C)C)c(=O)c12              193

Note: attention shifts to another entry.
Summary: Cc1cccc2nc(CSc3ncnc4[nH]cnc34)n(-c3ccccc3F)c(=O)c12 , PI3Kα (Homo sapiens, UniProt P42336), Alpha/Delta Ratio = 903
